Source listed as the supplement of paper PMC10065799.

# Measured On: Hck (UniProt P08631)
# Sequence (P08631 whole entry, looked up): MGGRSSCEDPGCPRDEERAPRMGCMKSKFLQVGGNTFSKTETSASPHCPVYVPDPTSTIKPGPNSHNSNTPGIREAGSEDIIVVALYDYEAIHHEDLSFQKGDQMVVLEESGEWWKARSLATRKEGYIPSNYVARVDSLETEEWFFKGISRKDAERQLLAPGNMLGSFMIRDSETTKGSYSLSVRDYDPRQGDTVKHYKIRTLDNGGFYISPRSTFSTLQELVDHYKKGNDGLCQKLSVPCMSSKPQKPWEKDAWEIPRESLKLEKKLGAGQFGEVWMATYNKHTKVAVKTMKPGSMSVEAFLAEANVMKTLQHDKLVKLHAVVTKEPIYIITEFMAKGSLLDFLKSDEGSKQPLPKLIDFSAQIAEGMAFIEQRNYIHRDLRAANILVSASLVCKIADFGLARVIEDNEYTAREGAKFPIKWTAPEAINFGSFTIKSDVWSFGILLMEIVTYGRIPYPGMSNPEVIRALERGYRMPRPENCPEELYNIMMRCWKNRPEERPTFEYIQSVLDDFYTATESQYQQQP
# Method: phosphorylation enrichment, bacterial display (enrichment ratio); higher = better substrate or ligand; peptides without Tyr show the background;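 further: 11-residue human phosphosite peptides and single-mutation variants displayed on the E. coli surface, counted by deep sequencing, each peptide's frequency after selection divided by its frequency in the unselected input library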;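 further: frequency after pTyr selection over input frequency; kinase dosed for 20-30% of maximal phosphorylation in three min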
Experimental Endpoint: phosphorylation enrichment
No unit in the answer, only the number.

Solved entries (count: 5):
STTIHYNFMCN [TP53_Y234_C229S_YF]; 0.504
VVKTVYSLQPP [KNSTRN_Y87]; 1.17
QCTSAYLLQPE [NANS_Y188_P189L]; 0.596
VVQGIYGYHHY [UFSP2_Y285]; 10.5
TLPAFYMENFS [GLB1_Y552_G554E]; 0.523

Please provide the recorded phosphorylation enrichment for AHDGEYGAEAL [HBA1_Y25_A22D] , tested on Hck (UniProt P08631).
0.445

Item: RTVPLYESLRK [DDB1_Y718_P721L] Test system: Hck (UniProt P08631) Read-out: phosphorylation enrichment Value: ?
12.4

Please tell me: phosphorylation enrichment of TSLAQYDSNSK [BMX_Y216] , system Hck (UniProt P08631)?
0.428

Recorded phosphorylation enrichment for CEHRGFLFLAI [TEK_Y897_Y897F_YF] with Hck (UniProt P08631), please?
0.434

State its phosphorylation enrichment on Hck (UniProt P08631): KLADIYQAELR [GFAP_Y116_V115I]
0.799

API: value(readout=phosphorylation enrichment, system=Hck (UniProt P08631)) for record FRKNTYNVKST [SYNE2_Y575_I574T_YF]
0.402

// map NSNAAYEQSHF [LRIF1_Y714] to recorded phosphorylation enrichment (system: Hck (UniProt P08631))
0.445

###

# Measured On: FGFR1 (UniProt P11362)
# Sequence (P11362 whole entry, looked up): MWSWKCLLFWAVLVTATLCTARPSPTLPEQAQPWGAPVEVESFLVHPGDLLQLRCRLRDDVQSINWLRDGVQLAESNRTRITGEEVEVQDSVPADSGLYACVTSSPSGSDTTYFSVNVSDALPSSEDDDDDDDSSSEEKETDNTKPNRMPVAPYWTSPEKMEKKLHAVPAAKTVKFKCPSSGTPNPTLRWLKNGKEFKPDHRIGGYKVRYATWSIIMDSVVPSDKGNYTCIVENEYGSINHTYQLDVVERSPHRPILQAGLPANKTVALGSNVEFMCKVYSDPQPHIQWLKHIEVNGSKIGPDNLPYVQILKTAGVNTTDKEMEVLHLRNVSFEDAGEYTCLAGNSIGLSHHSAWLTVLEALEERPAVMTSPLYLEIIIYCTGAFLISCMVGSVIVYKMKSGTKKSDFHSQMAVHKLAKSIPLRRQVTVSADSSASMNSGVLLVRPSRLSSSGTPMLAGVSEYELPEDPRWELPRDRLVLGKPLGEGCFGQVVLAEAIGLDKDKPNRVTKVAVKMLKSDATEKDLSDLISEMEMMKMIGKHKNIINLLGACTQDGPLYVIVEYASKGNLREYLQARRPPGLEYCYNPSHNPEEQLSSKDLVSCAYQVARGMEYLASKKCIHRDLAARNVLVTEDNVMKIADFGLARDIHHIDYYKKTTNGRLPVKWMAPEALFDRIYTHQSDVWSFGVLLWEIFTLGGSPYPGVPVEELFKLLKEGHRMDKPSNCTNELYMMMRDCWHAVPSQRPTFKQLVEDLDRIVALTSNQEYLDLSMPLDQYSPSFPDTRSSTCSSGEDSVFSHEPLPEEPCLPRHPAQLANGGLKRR
# Method: phosphorylation enrichment, bacterial display (enrichment ratio); higher = better substrate or ligand; peptides without Tyr show the background
Experimental Endpoint: phosphorylation enrichment

# count of solved cases: 10
VMAALYGRLYE [BTD_Y536_T532M]; 0.468
MKALGYFAVVK [OPA1_Y498_T503K]; 0.51
NLPGGYSGSVK [MCPH1_Y606]; 0.374
EIVHRYVELLD [AP1S3_Y87]; 0.41
ISDEAYVMAGV [ERBB2_Y772_L768S]; 0.494
RFQKLYLDRNL [IGFALS_Y248_L244F]; 0.636
RICRRYCQVLN [IQCF1_Y144_R141C]; 0.857
ECKLFYSRKEG [PTPN11_Y263_L262F]; 0.457
SLALFYRKVFH [RBL1_Y792_YF]; 0.532
SKNFTYIWWLN [PSG4_Y271_YF]; 0.498

Need phosphorylation enrichment, item KLLPEYPGILS [DHFR2_Y163_V166I]
0.467

Which phosphorylation enrichment value belongs to RQNRFYDAKVR [FKBP6_Y188] ?
0.506

For the sequence TYGQVYKGRHV [TNIK_Y40] , what phosphorylation enrichment is on record?
0.493

For the sequence shown here, DCPASYKKKSM [PDGFRA_Y768_R764C] , give the reported phosphorylation enrichment.
0.416

###

# System: c-Abl (mouse)
# Method: phosphorylation enrichment, bacterial display (enrichment ratio); higher = better substrate or ligand; peptides without Tyr show the background
Measured phosphorylation enrichment, listed per entry for reference.
Reply with just the number.

Example results:
LLPNAYIFVVQ [L1CAM_Y418_A415P_YF]; 1.06
CTTIHYNDMCN [TP53_Y234_Y236D]; 0.589
HILFRYPKEFQ [IDS_Y234_P231L]; 0.744
MEIHAYRKLLE [LMNA_Y376]; 0.672
KMMGRYEMFAR [UPB1_Y362_T359M_YF]; 0.464
SVVVPYDPPEV [TP53_Y220_E221D]; 0.629
RLLRGHDQSAF [HLA-C_Y137_Y137H_YF]; 0.653
PLKYLYPNIDK [STAT1_Y668]; 0.775

Find the recorded phosphorylation enrichment belonging to EVRAQYEEIAQ [KRT76_Y361] and report it.
0.92

Fill in the blank: the reported phosphorylation enrichment of NYAKMYCNPDA [KNL1_Y489] is ____.
0.989

Given the entry ELTTCYRKKCS [CCBE1_Y70_C75S] , report its measured phosphorylation enrichment.
0.64

I have this sequence here, SYCYRYRCAAQ [SUMF1_Y344_R349Q] , and I need its recorded phosphorylation enrichment.
0.471

Please look up its phosphorylation enrichment: ELCSEYRKSRK [SPINK5_Y440]
0.555

Item LYRYGYANTSE [SI_Y1233_C1229Y] has what recorded phosphorylation enrichment?
0.511

Suppose we examine the sequence NRNVRYLTLDI [AKR1C2_Y305] ; what phosphorylation enrichment value has been reported?
0.635

Dear colleague, I am looking for the recorded phosphorylation enrichment of the following sequence: ILGRFYETGSI [PAX2_Y73_YF]
0.52

GET /values?readout=phosphorylation enrichment&item= IMFTSYFLTIL [TAS2R16_Y239_V235M]
0.955

Can you look up the measured phosphorylation enrichment of GDPTEYYITAI [IGSF22_Y501_S503I] for me?
0.809

Value lookup for phosphorylation enrichment; key = CDKEYYSVHNK [MET_Y1235_Y1230C]
0.949

Which value of phosphorylation enrichment has been reported for EFISEFCGEII [EZH2_Y641_Y641F] in the records?
1.22

Please give the measured phosphorylation enrichment for this sequence: PLTRSYIREKV [CYP2C8_Y243_A238P]
0.305

Field request: phosphorylation enrichment | item: KDDEKYLDVSR [MTM1_Y260_I264S]
0.824

Name the reported phosphorylation enrichment value associated with the sequence RRESPYGGGGG [FUS_Y526_R524S]
0.569

Looking for the measured phosphorylation enrichment of KSLFHYRQYSA [CPS1_Y1491] , can you help?
0.567

If you can, please state the reported phosphorylation enrichment value of FPKAHYHWLVL [APTX_Y214_R213H_YF] .
0.716

Request the reported phosphorylation enrichment associated with ARSHIYTLASC [MEFV_Y741_F743L]
0.803
